# Test system: l(2)mbn cells
# Assay Details: cytotoxicity in Drosophila l(2)mbn cells
# Assay type: cell-based
# Condition Context: 4 µM, replicate 1, relative to DMSO 1%
Result Type: % viability, viability 1 (%)

>  <Compound>
C=C1CCC2C(C)(CCC=C(C)C)C(O)CCC2(C)C1Cc1c(OC)oc(C)c(C)c1=O (stereo not shown) [Compound 11]

>  <Target System>
l(2)mbn cells

>  <Result Type>
% viability, viability 1

>  <Reading>
2.134

$$$$
>  <Compound>
C=C1CCC2C(C)(CCC=C(C)C)C(O)CCC2(C)C1Cc1c(OC)oc(C)c(C)c1=O (stereo not shown) [Compound 15, viridoxin A hydrolysate]

>  <Target System>
l(2)mbn cells

>  <Result Type>
% viability, viability 1

>  <Reading>
79.7142

$$$$
>  <Compound>
C=C1CCC2C(C)(CCC=C(C)C)C(O)CCC2(C)C1Cc1c(O)c(C)c(C)oc1=O (stereo not shown) [Compound 4]

>  <Target System>
l(2)mbn cells

>  <Result Type>
% viability, viability 1

>  <Reading>
89.3854

$$$$
>  <Compound>
C=C1CCC2C(C)(CCC=C(C)C)C(O)CCC2(C)C1Cc1c(O)c(C)c(C)oc1=O (stereo not shown) [Compound 9, higginsianin B]

>  <Target System>
l(2)mbn cells

>  <Result Type>
% viability, viability 1

>  <Reading>
5.981

$$$$
